System: Type-1 angiotensin II receptor (Oryctolagus cuniculus) | Read-out: IC50 | Origin: multiple publications
Sequence (P34976 whole entry): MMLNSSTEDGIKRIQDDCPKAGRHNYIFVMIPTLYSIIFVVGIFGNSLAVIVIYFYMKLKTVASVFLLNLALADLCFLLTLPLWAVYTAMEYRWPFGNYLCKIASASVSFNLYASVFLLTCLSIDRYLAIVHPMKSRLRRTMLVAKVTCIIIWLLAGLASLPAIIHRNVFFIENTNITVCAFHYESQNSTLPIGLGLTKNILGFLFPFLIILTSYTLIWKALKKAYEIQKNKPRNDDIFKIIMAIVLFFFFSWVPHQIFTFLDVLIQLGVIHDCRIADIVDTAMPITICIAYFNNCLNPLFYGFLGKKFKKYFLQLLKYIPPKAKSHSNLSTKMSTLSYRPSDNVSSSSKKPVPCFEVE
measured.endpoint: IC50 (nM)

In [3]: df
Out[3]:
                                   molecule  unit_abbrev  reading
0  CCc1nc2ccc(NC(=O)N(C)C(C)C)cc2c(=O)n1Cc1ccc(-c2ccccc2S(=O)(=O)NC(=O)OCC=C(C)C)cc1F           nM     0.77
1  CCCCc1nn(-c2ccccc2C(F)(F)F)c(=O)n1Cc1ccc(-c2ccccc2S(=O)(=O)NC(=O)C2C(C)(C)C2(C)C)cc1           nM      3.3
2  CCCCc1nnc(SCC(=O)OC)n1Cc1ccc(-c2ccccc2C(=O)O)cc1           nM      540

a: CCOc1cc(Cn2c(CC)nc3c(C)cc(C)nc32)ccc1OC(C(=O)O)c1ccccc1 (configuration not stated)
b: CCCc1nc2ccc3cc2c(=O)n1Cc1ccc(cc1)-c1ccccc1S(=O)(=O)NC(=O)CCCCCCCN3C(=O)OCc1ccccc1
Q: From the recorded data, which exceeds the other in IC50: a or b ? Please identify the chosen entry by its label.
A: a
